- TARGET: NaV1.5 (Homo sapiens (Human), UniProt Q14524)
- Sequence (Q14524 other isoform, or with tags, fused parts or gaps): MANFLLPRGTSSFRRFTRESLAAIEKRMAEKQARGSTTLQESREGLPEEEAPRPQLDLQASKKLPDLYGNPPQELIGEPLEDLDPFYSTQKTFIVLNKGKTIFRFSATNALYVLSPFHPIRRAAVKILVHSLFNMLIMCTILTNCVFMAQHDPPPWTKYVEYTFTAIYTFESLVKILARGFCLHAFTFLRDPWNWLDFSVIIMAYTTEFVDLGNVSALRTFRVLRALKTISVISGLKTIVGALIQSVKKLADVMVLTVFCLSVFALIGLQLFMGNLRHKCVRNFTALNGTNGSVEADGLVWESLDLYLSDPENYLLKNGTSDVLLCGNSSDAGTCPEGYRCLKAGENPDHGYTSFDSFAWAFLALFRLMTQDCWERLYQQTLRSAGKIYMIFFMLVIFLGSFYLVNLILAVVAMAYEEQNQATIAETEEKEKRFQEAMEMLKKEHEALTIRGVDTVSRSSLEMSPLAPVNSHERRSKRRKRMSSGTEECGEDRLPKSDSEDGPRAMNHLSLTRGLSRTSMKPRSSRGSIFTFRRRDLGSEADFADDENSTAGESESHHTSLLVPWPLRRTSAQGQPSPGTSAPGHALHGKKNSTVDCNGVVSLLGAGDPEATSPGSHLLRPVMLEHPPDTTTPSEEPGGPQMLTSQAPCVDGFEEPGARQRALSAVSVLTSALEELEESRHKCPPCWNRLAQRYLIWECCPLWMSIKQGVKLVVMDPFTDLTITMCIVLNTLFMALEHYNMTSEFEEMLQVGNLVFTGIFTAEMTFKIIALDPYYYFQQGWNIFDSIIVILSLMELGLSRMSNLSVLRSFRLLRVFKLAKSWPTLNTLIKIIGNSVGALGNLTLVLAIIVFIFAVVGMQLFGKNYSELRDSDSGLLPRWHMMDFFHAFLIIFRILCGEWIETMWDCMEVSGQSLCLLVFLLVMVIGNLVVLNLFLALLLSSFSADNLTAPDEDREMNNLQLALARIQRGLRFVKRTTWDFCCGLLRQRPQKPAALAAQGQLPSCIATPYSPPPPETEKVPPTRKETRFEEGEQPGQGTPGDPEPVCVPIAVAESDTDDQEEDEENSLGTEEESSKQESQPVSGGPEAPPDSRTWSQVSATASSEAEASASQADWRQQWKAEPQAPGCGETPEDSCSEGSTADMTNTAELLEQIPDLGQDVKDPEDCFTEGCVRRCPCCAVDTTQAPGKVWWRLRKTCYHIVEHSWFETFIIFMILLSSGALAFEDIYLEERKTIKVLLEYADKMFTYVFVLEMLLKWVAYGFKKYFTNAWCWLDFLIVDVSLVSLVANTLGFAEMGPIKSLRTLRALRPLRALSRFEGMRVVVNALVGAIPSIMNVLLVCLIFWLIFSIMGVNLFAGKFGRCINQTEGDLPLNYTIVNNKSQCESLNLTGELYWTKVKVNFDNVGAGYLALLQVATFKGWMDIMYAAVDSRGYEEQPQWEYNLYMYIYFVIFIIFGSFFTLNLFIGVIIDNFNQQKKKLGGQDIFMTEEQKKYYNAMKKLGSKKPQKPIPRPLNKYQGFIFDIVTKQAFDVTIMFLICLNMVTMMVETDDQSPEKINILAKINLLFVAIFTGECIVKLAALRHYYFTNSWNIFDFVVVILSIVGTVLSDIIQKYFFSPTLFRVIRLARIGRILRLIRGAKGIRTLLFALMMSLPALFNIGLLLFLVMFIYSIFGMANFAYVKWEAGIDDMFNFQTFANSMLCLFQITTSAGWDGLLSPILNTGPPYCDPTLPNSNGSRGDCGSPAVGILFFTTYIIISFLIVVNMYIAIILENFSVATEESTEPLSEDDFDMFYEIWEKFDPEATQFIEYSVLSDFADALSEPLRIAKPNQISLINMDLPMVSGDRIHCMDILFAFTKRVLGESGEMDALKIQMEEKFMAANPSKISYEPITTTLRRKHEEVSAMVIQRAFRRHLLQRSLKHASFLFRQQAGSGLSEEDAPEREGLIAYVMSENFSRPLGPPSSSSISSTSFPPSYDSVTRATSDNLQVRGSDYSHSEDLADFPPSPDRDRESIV
- PROTOCOL: cell-based
pIC50: −log10 of the molar value. Counter-ions that a name gives are not always drawn.
MEASURED ENDPOINT: pIC50

> print(dat)
                                   molecule  measured.endpoint  bound.type  reading
1  C[C@@H](c1ccccc1)N1CCC(Oc2ccc(S(=O)(=O)Nc3nccs3)cc2Cl)CC1 [Example 58, 2,2,2-trifluoroacetate]              pIC50           =     5.25
2  CN(c1cc(F)c(S(=O)(=O)Nc2cscn2)cc1Cl)[C@H]1CCN(CCc2ccccc2)C1 [Example 179, formate]              pIC50           =     4.69
3  Cc1c(OC2(C)CCN(Cc3ccccc3)C2)cc(F)c(S(=O)(=O)Nc2nccs2)c1F (racemic) [Example 228, 2,2,2-trifluoroacetate]              pIC50           =     4.64
4  Cc1cccc(CN2CC[C@H](N(C)c3cc(F)c(S(=O)(=O)Nc4ncns4)c(F)c3Cl)C2)n1 [Example 297, 2,2,2-trifluoroacetate]              pIC50           <     4.52
5  CN(c1cc(F)c(S(=O)(=O)Nc2cscn2)cc1Cl)[C@H]1CCN(Cc2cccc3cccnc23)C1 [Example 170, formate]              pIC50           =     4.67
6  Cc1ccc(CN2CC[C@H](N(C)c3cc(F)c(S(=O)(=O)Nc4cscn4)cc3Cl)C2)s1 [Example 189, formate]              pIC50           =     4.78

---

- TARGET: UniProt:P35498
- PROTOCOL: Sodium Influx Assay (Flux), NaV1.1
- Type: cell-based
- CONDITION CONTEXT: Trex HEK293 cells, ANG2 dye; arithmetic mean
pIC50: −log10 of the molar value. Counter-ions that a name gives are not always drawn.
I would appreciate it if you labelled entries MET when pIC50 is 5 or higher, otherwise NOT MET.

> print(dat)
                                   compound  answer.label
1  Cc1cc(S(=O)(=O)Nc2cccc(F)n2)c(F)cc1N(C)[C@H]1CCN(Cc2ccccc2)C1       NOT MET
2  Cc1cccc(CN2CC[C@@H](Nc3ccc(S(=O)(=O)Nc4nccs4)cc3Cl)C2)c1           MET
3  O=S(=O)(Nc1nccs1)c1ccc(N[C@@H]2CCN(Cc3ccccc3F)C2)c(Cl)c1           MET
4  CN(c1ccc(S(=O)(=O)Nc2ncns2)cc1Cl)[C@H]1CCN(Cc2c(F)cccc2F)C1       NOT MET
5  Cc1cc(S(=O)(=O)Nc2cscn2)c(F)cc1O[C@H]1CCN(Cc2ccccc2)C1 [Example 273, 2,2,2-trifluoroacetate]       NOT MET
6  Cc1nc(CN2CC[C@H](N(C)c3cc(F)c(S(=O)(=O)Nc4cscn4)cc3C)C2)cs1 [Example 110, formate]       NOT MET
7  CN(c1cc(F)c(S(=O)(=O)Nc2cscn2)cc1F)[C@H]1CCN(Cc2ccccc2)C1 [Example 293, 2,2,2-trifluoroacetate]       NOT MET
8  CN(c1cc(F)c(S(=O)(=O)Nc2cscn2)cc1Cl)[C@H]1CCN(Cc2ccc(Cl)cc2)C1           MET
9  CN(c1ccc(S(=O)(=O)Nc2cscn2)c(F)c1Cl)[C@H]1CCN(Cc2ccccc2)C1 [Example 328, 2,2,2-trifluoroacetate]       NOT MET

---

This listing pairs compounds with measured pIC50.
- TARGET: NaV1.5 (Homo sapiens (Human))
- PROTOCOL: Sodium Influx Assay (Flux), NaV1.5
- CONDITION CONTEXT: read-out: Flux NaV1.5 IC50; Trex HEK293 cells, ANG2 dye; arithmetic mean
pIC50: −log10 of the molar value. Where a name gives a salt, the structure may show the parent alone.
MEASURED ENDPOINT: pIC50

> print(dat)
                                   compound  bound.type  reading
1  CN(c1cc(F)c(S(=O)(=O)Nc2cscn2)cc1Cl)[C@H]1CCN(Cc2cccs2)C1           <     4.52
2  CN(c1cc(F)c(S(=O)(=O)Nc2cscn2)cc1Cl)[C@H]1CCN(C(C)(C)c2ccccc2)C1 [Example 257, formate]           =     4.98
3  Cc1ccc(CN2CC[C@H](N(C)c3cc(F)c(S(=O)(=O)Nc4cscn4)cc3Cl)C2)cc1           =     4.82
4  C[C@@H](c1ccccc1)N1CCC(Oc2ccc(S(=O)(=O)Nc3ncns3)cc2Cl)CC1 [Example 221, 2,2,2-trifluoroacetate]           <     4.52
5  C[C@@H]1CN(Cc2ccccc2)C[C@@H]1Nc1ccc(S(=O)(=O)Nc2nccs2)cc1Cl (relative stereo)           =     5.05
6  O=S(=O)(Nc1ncns1)c1ccc(N[C@@H]2CCN(Cc3ccccc3)C2)c(Cl)c1 [Example 66, 2,2,2-trifluoroacetate]           <     4.52
7  Cc1ccc(CN2CCC(Oc3ccc(S(=O)(=O)Nc4nccs4)cc3Cl)CC2)cc1 [Example 24, 2,2,2-trifluoroacetate]           =     4.87

---

This listing pairs compounds with measured log10(IC50).
- TARGET: NaV1.1 (Homo sapiens (Human))
- PROTOCOL: Sodium Influx Assay (Flux), NaV1.1
- Format: cell-based
- CONDITION CONTEXT: Trex HEK293 cells, ANG2 dye; arithmetic mean
Counter-ions that a name gives are not always drawn.
MEASURED ENDPOINT: log10(IC50) (log10 of the value in µM)

> print(dat)
                                   compound  reading
1  COc1ccccc1CN1CC[C@H](N(C)c2cc(F)c(S(=O)(=O)Nc3cscn3)cc2C)C1 [Example 119, formate]     1.46
2  COC(=O)c1cccc(CN2CC[C@H](N(C)c3cc(F)c(S(=O)(=O)Nc4cscn4)cc3Cl)C2)c1     1.01
3  O=S(=O)(Nc1nccs1)c1ccc(OC2CCN(Cc3cccc(OC(F)F)c3)CC2)c(Cl)c1     0.80
4  COc1ccc(CN2CCC(Oc3ccc(S(=O)(=O)Nc4nccs4)cc3Cl)CC2)cc1     1.02
5  CCCc1ccc(CN2CC[C@H](N(C)c3cc(F)c(S(=O)(=O)Nc4cscn4)cc3Cl)C2)cc1     0.37

---

- TARGET: NaV1.6 (Homo sapiens (Human))
- PROTOCOL: Sodium Influx Assay (Flux), NaV1.6
- CONDITION CONTEXT: read-out: Flux NaV1.6 IC50; Trex HEK293 cells, ANG2 dye; arithmetic mean
pIC50: −log10 of the molar value. Structures can show the parent of a compound that is named as a salt.
I would appreciate it if you labelled entries t when pIC50 is 6 or higher, otherwise f.

> print(dat)
                                   molecule  answer.label
1  CN(c1ccc(S(=O)(=O)Nc2nccs2)cc1Cl)[C@H]1CCN(Cc2cccc(C(F)F)c2)C1 [Example 28]             t
2  C[C@@H]1C[C@@H](Oc2ccc(S(=O)(=O)Nc3nccs3)cc2Cl)CCN1Cc1ccccc1 (relative stereo) [Example 73]             f
3  Cc1cc(S(=O)(=O)Nc2cscn2)c(F)cc1N(C)[C@H]1CCN(Cc2ncc(Cl)s2)C1 [Example 146]             f
4  Cc1c(O[C@H]2CCN(Cc3ccccc3)C2)cc(F)c(S(=O)(=O)Nc2cscn2)c1F [Example 269, hydrochloride]             t
5  Cc1cc(S(=O)(=O)Nc2cscn2)c(F)cc1N(C)[C@H]1CCN(Cc2ccccc2O)C1 [Example 113]             t
6  Cc1ccc(CN2CC[C@H](N(C)c3cc(F)c(S(=O)(=O)Nc4cscn4)cc3C)C2)o1 [Example 132]             t
7  CN(c1ccc(S(=O)(=O)Nc2ncns2)cc1Cl)[C@H]1CCN(Cc2cccc(Cl)c2)C1 [Example 30]             t
8  CN(c1ccc(S(=O)(=O)Nc2nccs2)cc1Cl)[C@H]1CCN(Cc2ccccc2)C1 [Example 80]             t
9  Cc1ccc(CN2CCC(Oc3ccc(S(=O)(=O)Nc4nccs4)cc3Cl)CC2)cc1 [Example 24, 2,2,2-trifluoroacetate]             f

---

- TARGET: NaV1.5 (Homo sapiens (Human))
- PROTOCOL: cell-based
Structures can show the parent of a compound that is named as a salt.
MEASURED ENDPOINT: IC50 (µM)

> print(dat)
                                   molecule  measured.endpoint  bound.type  reading
1  Cc1cccc(CN2CC[C@H](N(C)c3cc(F)c(S(=O)(=O)Nc4ncns4)c(F)c3C)C2)n1 [Example 296, 2,2,2-trifluoroacetate]               IC50           >       30
2  CN(c1ccc(S(=O)(=O)Nc2ncns2)cc1Cl)[C@H]1CCN(Cc2cc(F)cc(F)c2)C1 [Example 327, formate]               IC50           >       30
3  C[C@H](c1cc(C2CC2)ccc1F)N1CCC(Oc2ccc(S(=O)(=O)Nc3cscn3)cc2Cl)CC1 (stereo in doubt)               IC50           =     4.74
4  CN(c1cc(F)c(S(=O)(=O)Nc2cscn2)cc1Cl)[C@H]1CCN(Cc2ccc3[nH]ccc3c2)C1 [Example 190, formate]               IC50           =     8.25
5  COc1cccnc1CN1CC[C@H](N(C)c2cc(F)c(S(=O)(=O)Nc3cscn3)cc2Cl)C1 [Example 176, formate]               IC50           >       30
6  CN(c1cc(F)c(S(=O)(=O)Nc2cscn2)cc1Cl)[C@H]1CCN(Cc2cnn(Cc3ccccc3)c2)C1 [Example 165, formate]               IC50           =     6.97

Origin of the recorded values: patent US10246453B2
